Tested on: MDA-MB-468 breast
Assay: NCI tumour cell line growth inhibition, 48 h
readout name: TGI

> print(dat)
                                   molecule    result
1  O=C1NC(=NCc2ccccc2Cl)S/C1=C\c1ccc2ncccc2c1   > 25 µM
2   CCOCC1(COCC)CCC(c2[nH]ncc2CN(C)CCNC)CC1  > 100 µM

Now turn to the next molecule.
[ask] Can you share its TGI? I mean this molecule: COc1ccc2c(c1)OC(N)=C(C#N)C2c1cc(OC)c(OC)c(OC)c1 (stereo not drawn)
[reply] 0.0688 µM
